Would you mind telling me the reported viability at 72 h, 0.78125 uM of each entry?
Assay Method Text: Cytotoxicity assay (CellTiter-Glo, 72 h), SKOV-3
Type: cell-based, human
Stated Conditions: human, SKOV-3 ovarian adenocarcinoma cells, conc 0.78125 uM; raw replicate data; read-out: SKOV3 viability (%)
Number in %, nothing else.

Please give measured viability at 72 h, 0.78125 uM of the following entry: CO[C@H]1C[C@@H]2CC[C@@H](C)[C@@](O)(O2)C(=O)C(=O)N2CCCC[C@H]2C(=O)O[C@H]([C@H](C)C[C@@H]2CC[C@@H](O)[C@H](OC)C2)CC(=O)[C@H](C)/C=C(\C)[C@@H](O)[C@@H](OC)C(=O)[C@H](C)C[C@H](C)/C=C/C=C/C=C/1C [Compound 1, rapamycin, reference compound]
55.3

Indicate the recorded viability at 72 h, 0.78125 uM value for this compound: CO[C@H]1C[C@@H]2CC[C@@H](C)[C@@](O)(O2)C(=O)C(=O)N2CCCC[C@H]2C(=O)O[C@H]([C@H](C)C[C@@H]2CC[C@@H](O)[C@H](OC)C2)CC(=O)[C@H](C)/C=C(\C)[C@@H](O)CC(=O)[C@H](C)C[C@H](C)/C=C/C=C(C)/C=C/1C
93.9

Give reported viability at 72 h, 0.78125 uM value for CO[C@@H]1C[C@H](C[C@@H](C)[C@@H]2CC(=O)[C@H](C)/C=C(\C)[C@@H](O)[C@@H](OC)C(=O)[C@H](C)C[C@H](C)/C=C/C=C/C=C(\C)[C@H](O)C[C@@H]3CC[C@@H](C)[C@@](O)(O3)C(=O)C(=O)N3CCCC[C@H]3C(=O)O2)CC[C@H]1O [Compound 17, (16R)-16-O-demethyl rapamycin]
71.6

// Input: COC1CC2CCC(C)C(O)(O2)C(=O)C(=O)N2CCCCC2C(=O)OC(C(C)CC2CCC(O)C(OC)C2)CC(=O)C(C)C=C(C)C(O)CC(=O)C(C)C=C(C)C=CC=CC=C1C (stereo not drawn) . Output its viability at 72 h, 0.78125 uM only.
93.1

Check the records and state viability at 72 h, 0.78125 uM for COC1CC2CCC(C)C(O)(O2)C(=O)C(=O)N2CCCCC2C(=O)OC(C(C)CC2CCC(O)C(OC)C2)CC(O)CC(=O)C(C)C=C(C)C(O)CC(=O)C(C)CC(C)C=CC=CC=C1C (stereo not drawn)
70.5

In one line, give reported viability at 72 h, 0.78125 uM of the entry CO[C@H]1C[C@@H]2CC[C@@H](C)[C@@](O)(O2)C(=O)C(=O)N2CCCC[C@H]2C(=O)O[C@H]([C@H](C)C[C@@H]2CC[C@@H](O)[C@H](OC)C2)CC(=O)[C@H](C)/C=C(\C)[C@@H](O)CC[C@H](C)/C=C/C=C/C=C/1C .
59.1

Identify viability at 72 h, 0.78125 uM associated with the compound COC1CC2CCC(C)C(O)(O2)C(=O)C(=O)N2CCCCC2C(=O)OC(C(C)CC2CCC(O)C(OC)C2)CC(=O)C(C)C=C(C)C(O)C(OC)C(=O)C(C)CC(C)C=CCCC=C1C (stereo not drawn)
77.1

Give the reported value of viability at 72 h, 0.78125 uM for this record: COC1CC2CCC(C)C(O)(O2)C(=O)C(=O)N2CCCCC2C(=O)OC(C(C)CC2CCC(O)C(OC)C2)CCC(C)C=C(C)C(O)C(OC)C(=O)C(C)CC(C)C=CC=CC=C1C (stereo not drawn)
57.3

Answer with the recorded viability at 72 h, 0.78125 uM of CO[C@@H]1/C=C/C=C/[C@@H](C)C[C@@H](C)C(=O)C[C@H](O)/C(C)=C/[C@@H](C)C(=O)C[C@@H]([C@H](C)C[C@@H]2CC[C@@H](O)[C@H](OC)C2)OC(=O)[C@@H]2CCCCN2C(=O)C(=O)[C@]2(O)O[C@@H](CC[C@H]2C)C1 only.
70.1
